# PROTOCOL: chemical genetic growth profiling, strain panel (AID 1159580);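 note: tested at 20 µM; growth read once vehicle control cultures reached saturation at 30 °C; 1 = growth at the plate median or of vehicle wells; lower values mean less growth of the strain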
# RUN CONDITIONS: S. cerevisiae deletion strains, growth OD, locus YBR009C, strain hhf1
Out of some 5,500 compounds screened, about 2,000 (36%) were called active. About 18% were inconclusive and are not listed. Cut-off read from the data, not from the text of the source: active = normalized growth mostly below about 0.91 (no sharp cut-off); inconclusive = no clear call, values can overlap the other calls; inactive = mostly above about 0.92. The list shows a part of the results.
# output must be one of 1 = active, 0 = inactive

O=C(Nc1ccc(C(=O)O)c(O)c1)c1ccccc1 :: 0
NCCC(=O)N[C@@H](Cc1cnc[nH]1)C(=O)O :: 0
COc1c(-c2coc3cc4c(cc3c2=O)CC(O)C(C)(C)O4)ccc2c1C=CC(C)(C)O2 (stereo not given) :: 0
COc1cccc2c1C(=O)c1c(O)c3c(c(O)c1C2=O)C[C@@](O)(C(C)=O)C[C@@H]3O[C@H]1C[C@H](N)[C@H](O)[C@H](C)O1 :: 1

Turning to the following compound.
GET /call?item= COc1ccc2c(c1)c(CC(=O)OCC(=O)O)c(C)n2C(=O)c1ccc(Cl)cc1 returns the recorded outcome of this test.
0

###

# PROTOCOL: chemical genetic growth profiling, strain panel (AID 1159580);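 note: tested at 20 µM; growth read once vehicle control cultures reached saturation at 30 °C; 1 = growth at the plate median or of vehicle wells; lower values mean less growth of the strain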
# RUN CONDITIONS: S. cerevisiae deletion strains, growth OD, locus YJR043C, strain POL32
Screen size: about 5,500 compounds; about 2,000 (36%) were called active. Not shown: some 18% with an inconclusive outcome. Rule as the data show it: active = normalized growth mostly below about 0.91 (no sharp cut-off); inconclusive = no clear call, values can overlap the other calls; inactive = mostly above about 0.92. Some of the results follow.
# output must be one of t = active, f = inactive

GET /call?item= CCCOc1ccccc1-c1nc2n[nH]nc2c(=O)[nH]1 returns the recorded outcome of this test.
f

GET /call?item= CC(=O)OC1CC[C@@]2(C)C(CC[C@]3(C)C2CCC2C4CC(C)(C)CCC4(C(=O)O)CC[C@]23C)C1(C)C (stereo partly specified) returns the recorded outcome of this test.
f

GET /call?item= Clc1ccccc1C(c1ccccc1)(c1ccccc1)n1ccnc1 returns the recorded outcome of this test.
t

GET /call?item= O=C(O)/C=C1\CCCc2ccccc2C1O (stereo unspecified) returns the recorded outcome of this test.
f

GET /call?item= C[C@@H]1OC(O[C@H]2C(O[C@H]3CC[C@@]4(C)C(CC[C@]5(C)C4CC=C4C6CC(C)(C)CC[C@]6(C(=O)O)CC[C@]45C)[C@]3(C)CO)OC[C@H](O)[C@@H]2O)[C@H](O)[C@H](O)[C@H]1O (stereo partly specified) returns the recorded outcome of this test.
t

GET /call?item= NC(Cc1c[nH]c2ccccc12)C(=O)O (stereo unspecified) returns the recorded outcome of this test.
f

GET /call?item= FC(F)(F)c1cnc(N2CCN(C(=S)Nc3ccccc3)CC2)c(Cl)c1 returns the recorded outcome of this test.
f

GET /call?item= CC(C)c1ccccc1NC(=S)N1CCN(c2ncc(C(F)(F)F)cc2Cl)CC1 returns the recorded outcome of this test.
f

GET /call?item= CC(=O)O[C@H]1CC[C@@]2(C)C(CC[C@]3(C)C2C(=O)C=C2C4[C@@H](C)[C@H](C)CC[C@]4(C(=O)O)CC[C@]23C)C1(C)C (stereo partly specified) returns the recorded outcome of this test.
f

GET /call?item= CC1(C)CC[C@]2(C(=O)O)CC[C@]3(C)C(=CCC4[C@@]5(C)CC[C@H](O)[C@@](C)(CO)C5CC[C@]43C)C2C1 (stereo partly specified) returns the recorded outcome of this test.
f

GET /call?item= Cc1ccnc(NS(=O)(=O)c2ccc(N)cc2)n1 returns the recorded outcome of this test.
f

GET /call?item= C=C/C(C)=C\CC1C(C)(O)CCC2C(C)(C)CCCC21C (stereo unspecified) returns the recorded outcome of this test.
t

GET /call?item= C#C[C@]1(O)CCC2C3CCC4=CC(=O)CC[C@@H]4C3CC[C@@]21CC (stereo partly specified) returns the recorded outcome of this test.
f

Sourced from PubChem BioAssay AID1159580
